Attribution: patent US20200040059A1

# SUBJECT_OF_TEST: PD-1 (Homo sapiens (Human)) (UniProt Q15116)
# Sequence (Q15116 21-288 limits assumed): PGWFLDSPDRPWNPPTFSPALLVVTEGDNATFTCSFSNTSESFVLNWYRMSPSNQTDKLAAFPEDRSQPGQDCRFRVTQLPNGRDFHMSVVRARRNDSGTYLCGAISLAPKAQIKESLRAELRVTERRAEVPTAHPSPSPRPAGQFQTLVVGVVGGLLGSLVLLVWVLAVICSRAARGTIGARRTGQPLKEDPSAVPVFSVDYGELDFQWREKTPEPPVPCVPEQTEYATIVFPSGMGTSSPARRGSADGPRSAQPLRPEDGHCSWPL
# ASSAY_INFO: flow cytometry, Jurkat/PD-1 cells; vs wildtype PD-L2 IgV-Fc

BINDER: variant PD-L2 IgV-Fc I13V, H15Q, S67L, I86T (Fc fusion, not shown: a dimerising Fc or GST; small tags and cut ends) LFTVTVPKELYIVEQGSNVTLECNFDTGSHVNLGAITASLQKVENDTSPHRERATLLEEQLPLGKALFHIPQVQVRDEGQYQCIITYGVAWDYKYLTLK
UNIT_OF_MEASURE: fold
Fold increase over wildtype PD-L2 IgV-Fc: 2.19
--
BINDER: variant PD-L2 IgV-Fc H15Q, S67L, Q72H, R76G, V89D (Fc fusion, not shown: a dimerising Fc or GST; small tags and cut ends) LFTVTVPKELYIIEQGSNVTLECNFDTGSHVNLGAITASLQKVENDTSPHRERATLLEEQLPLGKALFHIPHVQVGDEGQYQCIIIYGDAWDYKYLTLK
UNIT_OF_MEASURE: fold
Fold increase over wildtype PD-L2 IgV-Fc: 4.08
--
BINDER: variant PD-L2 IgV-Fc I13V, H15Q, V89D (Fc fusion, not shown: a dimerising Fc or GST; small tags and cut ends) FTVTVPKELYIVEQGSNVTLECNFDTGSHVNLGAITASLQKVENDTSPHRERATLLEEQLPLGKASFHIPQVQVRDEGQYQCIIIYGDAWDYKYLTLK
UNIT_OF_MEASURE: fold
Fold increase over wildtype PD-L2 IgV-Fc: 2.92
--
BINDER: variant PD-L2 IgV-Fc I13V, H15Q, R76G, D77N, Q82R, V89D (Fc fusion, not shown: a dimerising Fc or GST; small tags and cut ends) FTVTVPKELYIVEQGSNVTLECNFDTGSHVNLGAITASLQKVENDTSPHRERATLLEEQLPLGKASFHIPQVQVGNEGQYRCIIIYGDAWDYKYLTLK
UNIT_OF_MEASURE: fold
Fold increase over wildtype PD-L2 IgV-Fc: 3.36
